# Test system: ppMlc (T18/S19) levels in A7R5 cells
# Protocol Summary: A7R5 in-cell ELISA assay (ppMlc)
# Format: cell-based, rat
# Experimental Parameters: Rattus norvegicus, A7R5, A7R5 cells, Table 2; read-out: pMLC IC50 (nM) A7R5
Returns: string. Value is criterion met if measured IC50 is below 100 nM, and criterion not met if it is greater than or equal to it.

Here are 3 compounds together with their reported answers.
> print(dat)
                                   compound              label
1  COCCN(C)C(C(=O)Nc1cc(F)c(-c2cn[nH]c2)cc1OCCN(C)C)c1cccc(OC)c1 (centres unmarked)      criterion met
2  CN[C@@H](C(=O)Nc1ccc(-c2cn[nH]c2)cc1)c1cccc(OC)c1  criterion not met
3  COc1cccc(C(NCC(=O)N(C)C)C(=O)Nc2ccc(-c3cn[nH]c3)cc2)c1 (centres unmarked)  criterion not met

hey, is IC50 for CCOCCNC(C(=O)Nc1ccc(-c2cn[nH]c2)cc1)c1cccc(OC)c1 (centres unmarked) lower than 100 nM or not?
criterion not met

hey, is IC50 for CCNC(C(=O)Nc1ccc(-c2cn[nH]c2)cc1)c1ccc(C)cc1 (centres unmarked) lower than 100 nM or not?
criterion met
